# Tested on: HT-29 cells
# assay.remarks: Hoechst/propidium iodide cell death assay in HT-29
# Assay type: cell-based, human
# condition.summary: Homo sapiens, HT-29, 48 h, HT-29; 48h; 20 μM; read-out: Percentage of cell death % 48h, HT-29
# Description: A high-content imaging system (PerkinElmer; Operetta CLS), was used to quantify cell death and apoptosis by calculating the number of propidium iodide-positive cells relative to Hoechst-positive cells, and the number of Annexin V-positive cells relative to Hoechst-positive cells, respectively.
We use 20% as the dividing line for cytotoxicity at 20 µM: on or above the line is 1, below is 0.

Example entries and their recorded answers appear below.
> print(dat)
                                   molecule  target.or.test.system  answer.label
1  Cc1cc(Nc2ncc(Cl)c(Nc3ccccc3S(=O)(=O)C(C)C)n2)c(OC(C)C)cc1C1CCNCC1            HT-29 cells             1
2  COc1cc(C(=O)NS(=O)(=O)c2ccccc2C)ccc1Cc1cn(C)c2ccc(NC(=O)OC3CCCC3)cc12            HT-29 cells             0
3  C(=C\c1ccccc1)/CN1CCN(C(c2ccccc2)c2ccccc2)CC1            HT-29 cells             0
4  CC(C)(O)c1ccccc1CC[C@@H](SCC1(CC(=O)O)CC1)c1cccc(/C=C/c2ccc3ccc(Cl)cc3n2)c1 [Montelukast Sodium]            HT-29 cells             0

# check: cytotoxicity at 20 µM of O=C1Nc2ccc(Cl)cc2[C@@](C#CC2CC2)(C(F)(F)F)O1 is greater than or equal to 20%
1

Could you verify whether the entry C[C@H](CCC(=O)O)[C@H]1CC[C@H]2[C@@H]3[C@H](O)C[C@@H]4C[C@H](O)CC[C@]4(C)[C@H]3CC[C@]12C shows cytotoxicity at 20 µM of no less than 20%?
0

Evaluate C[C@@H](NCCCc1cccc(C(F)(F)F)c1)c1cccc2ccccc12 : cytotoxicity at 20 µM at minimum 20%?
1

###

# Tested on: HT-29 cells
# assay.remarks: Hoechst/propidium iodide cell death assay in HT-29
# Format: cell-based, human
# condition.summary: Homo sapiens, HT-29, 48 h, HT-29; 48h; 20 μM; read-out: Percentage of cell death % 48h, HT-29
cytotoxicity at 20 µM overview
Reply with just the number (in %).

Example entries and their recorded answers appear below.
> print(dat)
                                   compound  observed.value
1  CCOC(=O)C1=C(C)NC(C)=C(C(=O)OC)C1c1cccc(Cl)c1Cl (centres unmarked)            6.71
2  Clc1ccc(C(Cn2ccnc2)OCc2c(Cl)cccc2Cl)c(Cl)c1 (centres unmarked) [Isoconazole nitrate]            3.88
3  CCOc1cc(CC(=O)N[C@@H](CC(C)C)c2ccccc2N2CCCCC2)ccc1C(=O)O [Repaglinide]            1.01
4  O=c1[nH]c2ccccc2n1C1CCN(CCCC(c2ccc(F)cc2)c2ccc(F)cc2)CC1 [Pimozide]            64.6
5  COc1cc2ncnc(Nc3ccc(F)c(Cl)c3)c2cc1NC(=O)/C=C/CN1CCCCC1            84.1

Would you mind telling me what cytotoxicity at 20 µM value was observed for CN(C)c1ccc(C(=C2C=CC(=[N+](C)C)C=C2)c2ccc(N(C)C)cc2)cc1 ?
95.4

Given the entry CCCCCCCCCCCC[N+](C)(C)CCOc1ccccc1 [Domiphen Bromide] , report its measured cytotoxicity at 20 µM.
57.1

cytotoxicity at 20 µM for Cc1c(C)c2c(c(C)c1O)CCC(C)(COc1ccc(CC3SC(=O)NC3=O)cc1)O2 (centres unmarked) ?
0.925
